Data provenance is patent US12227488B2.

The following compounds are shown together with reported IKZF1 GFP/RFP Relative Abundance values.
experimental-system: IKZF1 (Homo sapiens, UniProt Q13422)
Construct: expressed in transfected cells; host or cells: Flp-In 293
Sequence (Q13422 83-213 isoform Q13422-7 limits assumed): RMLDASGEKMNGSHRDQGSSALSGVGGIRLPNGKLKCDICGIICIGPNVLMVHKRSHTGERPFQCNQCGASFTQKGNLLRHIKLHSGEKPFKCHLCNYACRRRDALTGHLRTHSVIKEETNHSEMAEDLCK
Sequence (Q96SW2 whole entry partner): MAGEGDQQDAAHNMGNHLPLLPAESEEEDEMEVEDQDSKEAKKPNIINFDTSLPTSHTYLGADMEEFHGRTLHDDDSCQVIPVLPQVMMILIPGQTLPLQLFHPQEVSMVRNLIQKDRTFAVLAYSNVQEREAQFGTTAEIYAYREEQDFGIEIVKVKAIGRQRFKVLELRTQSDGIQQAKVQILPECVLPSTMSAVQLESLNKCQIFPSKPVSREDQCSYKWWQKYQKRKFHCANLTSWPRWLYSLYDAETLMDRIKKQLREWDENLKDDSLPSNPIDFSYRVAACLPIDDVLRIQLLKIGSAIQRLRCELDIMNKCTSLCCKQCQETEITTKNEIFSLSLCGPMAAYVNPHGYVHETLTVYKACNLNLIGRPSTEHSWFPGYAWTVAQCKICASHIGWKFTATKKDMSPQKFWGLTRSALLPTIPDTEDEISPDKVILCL
Sequence (Q16531 2-1140 partner limits assumed): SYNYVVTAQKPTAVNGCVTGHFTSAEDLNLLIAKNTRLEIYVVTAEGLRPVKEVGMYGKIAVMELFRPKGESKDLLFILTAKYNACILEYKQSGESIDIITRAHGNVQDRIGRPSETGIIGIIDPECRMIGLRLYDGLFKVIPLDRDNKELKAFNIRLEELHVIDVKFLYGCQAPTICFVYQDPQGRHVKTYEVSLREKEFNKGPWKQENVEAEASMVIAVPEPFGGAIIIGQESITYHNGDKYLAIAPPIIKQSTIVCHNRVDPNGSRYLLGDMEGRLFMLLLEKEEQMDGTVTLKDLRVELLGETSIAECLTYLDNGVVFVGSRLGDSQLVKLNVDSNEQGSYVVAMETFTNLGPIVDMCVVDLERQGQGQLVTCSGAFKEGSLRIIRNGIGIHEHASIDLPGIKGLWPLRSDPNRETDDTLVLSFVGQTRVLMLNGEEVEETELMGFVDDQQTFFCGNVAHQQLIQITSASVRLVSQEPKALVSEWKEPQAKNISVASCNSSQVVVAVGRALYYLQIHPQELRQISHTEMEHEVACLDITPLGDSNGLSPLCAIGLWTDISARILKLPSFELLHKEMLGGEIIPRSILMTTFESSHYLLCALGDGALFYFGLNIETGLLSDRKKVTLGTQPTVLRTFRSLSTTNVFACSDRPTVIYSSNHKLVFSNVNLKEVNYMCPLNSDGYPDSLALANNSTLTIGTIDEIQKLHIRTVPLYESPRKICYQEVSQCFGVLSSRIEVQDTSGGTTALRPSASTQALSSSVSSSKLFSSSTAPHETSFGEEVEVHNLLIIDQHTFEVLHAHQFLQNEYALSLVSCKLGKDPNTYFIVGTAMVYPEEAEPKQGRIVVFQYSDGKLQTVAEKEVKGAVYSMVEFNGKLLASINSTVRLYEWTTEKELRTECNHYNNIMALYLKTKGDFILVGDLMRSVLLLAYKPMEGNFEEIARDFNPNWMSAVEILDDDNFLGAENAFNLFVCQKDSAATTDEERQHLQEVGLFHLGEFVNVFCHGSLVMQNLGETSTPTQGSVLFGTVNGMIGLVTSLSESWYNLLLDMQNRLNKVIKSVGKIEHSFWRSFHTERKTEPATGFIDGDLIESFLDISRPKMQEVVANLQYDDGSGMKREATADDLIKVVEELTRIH
test: Cellular degradation assay, eGFP-IKZF1Δ fusion with mCherry reporter in Flp-In 293 cells
Format: cell-based
measurement-setup: compound concentration 2.00E−05; 5 h incubation; n=1

Examples from the recorded data:
compound	IKZF1 GFP/RFP Relative Abundance
Cc1ccc(NC(=O)/C=C/c2cccc(NC3=CC(=O)N(C4CCC(=O)NC4=O)C3=O)c2)cc1Cl (stereo not drawn) [Compound 57]	0.502
O=C1CCC(N2C(=O)C=C(Nc3ccc(-c4ccccc4)cc3)C2=O)C(=O)N1 (stereo not drawn) [Compound 38]	0.728
Cc1ccc(CC(=O)NCc2cccc(NC3=CC(=O)N(C4CCC(=O)NC4=O)C3=O)c2)cc1C (stereo not drawn) [Compound 60]	0.132

# query: IKZF1 GFP/RFP Relative Abundance of entry Cc1ccc(NC2=CC(=O)N(C3CCC(=O)NC3=O)C2=O)cc1Cl (stereo not drawn) [Compound 3]
0.242

# query: IKZF1 GFP/RFP Relative Abundance of entry Cc1cc(NC2=CC(=O)N(C3CCC(=O)NC3=O)C2=O)ccc1Cl (stereo not drawn) [Compound 4]
0.314

# query: IKZF1 GFP/RFP Relative Abundance of entry COC(=O)CCNC1=CC(=O)N(C2CCC(=O)NC2=O)C1=O (stereo not drawn) [Compound 14]
1.033

# query: IKZF1 GFP/RFP Relative Abundance of entry CCOC(=O)CN(C)C1=CC(=O)N(C2CCC(=O)NC2=O)C1=O (stereo not drawn) [Compound 17]
1.020

# query: IKZF1 GFP/RFP Relative Abundance of entry Cc1ccc(NC(=O)NCc2cccc(NC3=CC(=O)N(C4CCC(=O)NC4=O)C3=O)c2)cc1Cl (stereo not drawn) [Compound 44]
0.059

# query: IKZF1 GFP/RFP Relative Abundance of entry Cc1ccc(NC(=O)N[C@@H](C)c2cccc(NC3=CC(=O)N(C4CCC(=O)NC4=O)C3=O)c2)cc1Cl (stereo partly drawn) [Compound 71]
0.088

# query: IKZF1 GFP/RFP Relative Abundance of entry Cc1ccc(NC(=O)NCCc2cccc(NC3=CC(=O)N(C4CCC(=O)NC4=O)C3=O)c2)cc1Cl (stereo not drawn) [Compound 62]
0.133

# query: IKZF1 GFP/RFP Relative Abundance of entry O=C1CCC(N2C(=O)C=C(Nc3cnc4ccccc4c3)C2=O)C(=O)N1 (stereo not drawn) [Compound 27]
0.701

# query: IKZF1 GFP/RFP Relative Abundance of entry CN(C)C(=O)c1cccc(NC2=CC(=O)N(C3CCC(=O)NC3=O)C2=O)c1 (stereo not drawn) [Compound 33]
0.339

====

experimental-system: CRBN and Helios (IKZF2) (Homo sapiens, UniProt Q96SW2+Q9UKS7)
Construct: His (N); Strep (N)
Sequence (Q96SW2 whole entry): as the sequence (Q96SW2 whole entry partner) above
Sequence (Q9UKS7 whole entry): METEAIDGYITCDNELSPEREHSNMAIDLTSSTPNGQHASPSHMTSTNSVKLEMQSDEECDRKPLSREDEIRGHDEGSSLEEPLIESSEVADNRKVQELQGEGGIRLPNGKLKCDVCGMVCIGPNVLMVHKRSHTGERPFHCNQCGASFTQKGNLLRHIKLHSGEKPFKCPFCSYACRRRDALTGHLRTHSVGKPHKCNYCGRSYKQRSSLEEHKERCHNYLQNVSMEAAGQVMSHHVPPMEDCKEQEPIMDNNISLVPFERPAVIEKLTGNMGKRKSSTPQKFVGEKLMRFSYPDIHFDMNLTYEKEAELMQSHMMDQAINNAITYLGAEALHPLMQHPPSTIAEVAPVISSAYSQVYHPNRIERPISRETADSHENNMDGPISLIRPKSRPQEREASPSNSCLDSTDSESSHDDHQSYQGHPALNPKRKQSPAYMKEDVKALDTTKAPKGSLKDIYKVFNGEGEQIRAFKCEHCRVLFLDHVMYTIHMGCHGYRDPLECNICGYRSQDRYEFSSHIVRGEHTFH
test: TR-FRET dimerization assay (CRBN-IKZF2 ternary complex formation)
Format: binding
measurement-setup: compound concentration 6.6667E−05; n=1
quantity-kind: TR-FRET-IKZF2 (Normalized to CC-885)

compound	quantity-kind	observed
O=C1CCC(N2C(=O)C=C(Nc3cccc(CNC(=O)NCc4ccccc4)c3)C2=O)C(=O)N1 (stereo not drawn) [Compound 81]	TR-FRET-IKZF2 (Normalized to CC-885)	0.703
CN(C)C(=O)c1cccc(NC2=CC(=O)N(C3CCC(=O)NC3=O)C2=O)c1 (stereo not drawn) [Compound 33]	TR-FRET-IKZF2 (Normalized to CC-885)	0.584
O=C1CCC(N2C(=O)C=C(Nc3cccc(Cl)c3)C2=O)C(=O)N1 (stereo not drawn) [Compound 26]	TR-FRET-IKZF2 (Normalized to CC-885)	0.365
Cc1ccc(NC2=CC(=O)N(C3CCC(=O)NC3=O)C2=O)cc1C (stereo not drawn) [Compound 24]	TR-FRET-IKZF2 (Normalized to CC-885)	0.391
Cc1ccc(NC2=CC(=O)N(C3CCC(=O)NC3=O)C2=O)cc1Cl (stereo not drawn) [Compound 3]	TR-FRET-IKZF2 (Normalized to CC-885)	0.357

# query: TR-FRET-IKZF2 (Normalized to CC-885) of entry O=C1CCC(N2C(=O)C=C(Nc3ccc(-c4ccccc4)cc3)C2=O)C(=O)N1 (stereo not drawn) [Compound 38]
0.328

# query: TR-FRET-IKZF2 (Normalized to CC-885) of entry O=C(O)CCCNC1=CC(=O)N(C2CCC(=O)NC2=O)C1=O (stereo not drawn) [Compound 21]
0.047

# query: TR-FRET-IKZF2 (Normalized to CC-885) of entry CN(C1=CC(=O)N(C2CCC(=O)NC2=O)C1=O)c1ccccc1 (stereo not drawn) [Compound 28]
0.072

# query: TR-FRET-IKZF2 (Normalized to CC-885) of entry O=C1CCC(N2C(=O)C=C(Nc3nc[nH]n3)C2=O)C(=O)N1 (stereo not drawn) [Compound 18]
0.062
